// data source = ChEMBL document CHEMBL6121021

target: Cytochrome P450 1A2 (Homo sapiens, UniProt P05177)
Sequence (P05177 whole entry): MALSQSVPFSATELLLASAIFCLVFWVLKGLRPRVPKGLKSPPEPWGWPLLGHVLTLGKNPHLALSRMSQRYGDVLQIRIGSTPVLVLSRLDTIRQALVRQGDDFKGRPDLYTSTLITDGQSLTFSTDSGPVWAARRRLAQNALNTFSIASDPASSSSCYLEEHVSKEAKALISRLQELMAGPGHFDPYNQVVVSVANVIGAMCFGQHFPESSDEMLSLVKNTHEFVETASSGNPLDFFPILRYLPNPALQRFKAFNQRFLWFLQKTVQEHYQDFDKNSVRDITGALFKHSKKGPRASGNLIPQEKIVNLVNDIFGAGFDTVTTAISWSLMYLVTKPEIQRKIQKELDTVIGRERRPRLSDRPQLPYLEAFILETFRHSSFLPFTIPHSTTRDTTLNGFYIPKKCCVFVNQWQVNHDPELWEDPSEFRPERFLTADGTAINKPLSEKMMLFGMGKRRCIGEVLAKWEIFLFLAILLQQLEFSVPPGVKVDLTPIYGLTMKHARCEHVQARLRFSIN
Measurement name: IC50 (µM)
Numbers only; they are read as µM.

QUERY: Report measured IC50 on Cytochrome P450 1A2 (Homo sapiens, UniProt P05177); entry: COc1ccc(-c2ccc3cc(OCCCCCC(=O)NO)ccc3n2)cc1
RESULT: 4.42

###

target: DNA topoisomerase 2-alpha (Homo sapiens); experiment: Inhibition of human Topo II-alpha-mediated decatenation of kDNA at 100 uM incubated for 30 mins
Sequence (P11388 whole entry): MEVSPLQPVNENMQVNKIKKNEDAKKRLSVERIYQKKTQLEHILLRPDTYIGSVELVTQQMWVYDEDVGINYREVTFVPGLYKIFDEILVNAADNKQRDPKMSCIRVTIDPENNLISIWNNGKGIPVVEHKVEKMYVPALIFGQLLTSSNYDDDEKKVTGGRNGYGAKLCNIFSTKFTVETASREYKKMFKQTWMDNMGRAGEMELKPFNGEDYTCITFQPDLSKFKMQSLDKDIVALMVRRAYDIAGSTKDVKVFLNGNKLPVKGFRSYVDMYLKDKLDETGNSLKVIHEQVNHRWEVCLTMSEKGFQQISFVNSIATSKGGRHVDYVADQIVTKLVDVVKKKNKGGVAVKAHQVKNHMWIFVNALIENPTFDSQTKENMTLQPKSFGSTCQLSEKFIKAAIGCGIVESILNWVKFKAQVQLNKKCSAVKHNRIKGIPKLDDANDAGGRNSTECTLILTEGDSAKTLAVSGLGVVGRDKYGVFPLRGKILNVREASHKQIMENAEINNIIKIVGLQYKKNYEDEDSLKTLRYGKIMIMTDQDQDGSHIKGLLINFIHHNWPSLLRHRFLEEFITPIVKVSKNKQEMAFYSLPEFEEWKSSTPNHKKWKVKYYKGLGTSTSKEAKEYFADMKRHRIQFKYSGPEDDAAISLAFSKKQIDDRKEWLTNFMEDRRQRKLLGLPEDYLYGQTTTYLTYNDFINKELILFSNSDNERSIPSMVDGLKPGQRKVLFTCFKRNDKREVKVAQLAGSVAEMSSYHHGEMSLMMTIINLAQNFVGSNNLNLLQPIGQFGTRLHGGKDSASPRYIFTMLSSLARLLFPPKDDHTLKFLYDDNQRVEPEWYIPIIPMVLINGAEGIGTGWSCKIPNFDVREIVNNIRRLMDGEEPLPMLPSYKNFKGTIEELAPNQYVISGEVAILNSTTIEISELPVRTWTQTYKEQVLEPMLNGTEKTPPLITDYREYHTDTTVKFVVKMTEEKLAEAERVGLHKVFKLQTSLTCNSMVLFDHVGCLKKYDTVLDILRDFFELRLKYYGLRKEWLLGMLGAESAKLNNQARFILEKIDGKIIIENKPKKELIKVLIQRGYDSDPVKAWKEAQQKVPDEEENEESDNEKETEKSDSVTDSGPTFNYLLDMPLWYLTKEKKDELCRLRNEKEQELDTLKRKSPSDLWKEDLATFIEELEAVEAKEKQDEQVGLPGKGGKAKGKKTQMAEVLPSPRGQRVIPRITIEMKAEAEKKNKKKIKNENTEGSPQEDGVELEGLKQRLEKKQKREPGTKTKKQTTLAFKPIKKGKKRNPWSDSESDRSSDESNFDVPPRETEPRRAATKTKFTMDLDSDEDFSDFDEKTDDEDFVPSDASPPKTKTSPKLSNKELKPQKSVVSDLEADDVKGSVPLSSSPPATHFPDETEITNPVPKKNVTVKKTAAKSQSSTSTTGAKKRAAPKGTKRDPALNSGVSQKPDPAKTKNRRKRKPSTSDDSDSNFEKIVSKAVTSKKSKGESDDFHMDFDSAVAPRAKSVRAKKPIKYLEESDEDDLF
Calls of active or inactive are those of the source. No cut-off for these calls is given here.
Measurement name: inhibition

>  <Cpd smiles>
COc1cc(-c2ccc3cc(OCCCCCCC(=O)NO)ccc3n2)cc(OC)c1OC

>  <Target system>
DNA topoisomerase 2-alpha (Homo sapiens)

>  <Result>
Active

$$$$
>  <Cpd smiles>
COc1cc(-c2ccc3cc(OCCCCCC(=O)NO)ccc3n2)cc(OC)c1OC

>  <Target system>
DNA topoisomerase 2-alpha (Homo sapiens)

>  <Result>
Active

$$$$

###

molecular target: Histone deacetylase 4 (Homo sapiens, UniProt P56524); assay: Inhibition of His/GST-tagged recombinant human HDAC4 by fluorogenic assay
Sequence (P56524 whole entry): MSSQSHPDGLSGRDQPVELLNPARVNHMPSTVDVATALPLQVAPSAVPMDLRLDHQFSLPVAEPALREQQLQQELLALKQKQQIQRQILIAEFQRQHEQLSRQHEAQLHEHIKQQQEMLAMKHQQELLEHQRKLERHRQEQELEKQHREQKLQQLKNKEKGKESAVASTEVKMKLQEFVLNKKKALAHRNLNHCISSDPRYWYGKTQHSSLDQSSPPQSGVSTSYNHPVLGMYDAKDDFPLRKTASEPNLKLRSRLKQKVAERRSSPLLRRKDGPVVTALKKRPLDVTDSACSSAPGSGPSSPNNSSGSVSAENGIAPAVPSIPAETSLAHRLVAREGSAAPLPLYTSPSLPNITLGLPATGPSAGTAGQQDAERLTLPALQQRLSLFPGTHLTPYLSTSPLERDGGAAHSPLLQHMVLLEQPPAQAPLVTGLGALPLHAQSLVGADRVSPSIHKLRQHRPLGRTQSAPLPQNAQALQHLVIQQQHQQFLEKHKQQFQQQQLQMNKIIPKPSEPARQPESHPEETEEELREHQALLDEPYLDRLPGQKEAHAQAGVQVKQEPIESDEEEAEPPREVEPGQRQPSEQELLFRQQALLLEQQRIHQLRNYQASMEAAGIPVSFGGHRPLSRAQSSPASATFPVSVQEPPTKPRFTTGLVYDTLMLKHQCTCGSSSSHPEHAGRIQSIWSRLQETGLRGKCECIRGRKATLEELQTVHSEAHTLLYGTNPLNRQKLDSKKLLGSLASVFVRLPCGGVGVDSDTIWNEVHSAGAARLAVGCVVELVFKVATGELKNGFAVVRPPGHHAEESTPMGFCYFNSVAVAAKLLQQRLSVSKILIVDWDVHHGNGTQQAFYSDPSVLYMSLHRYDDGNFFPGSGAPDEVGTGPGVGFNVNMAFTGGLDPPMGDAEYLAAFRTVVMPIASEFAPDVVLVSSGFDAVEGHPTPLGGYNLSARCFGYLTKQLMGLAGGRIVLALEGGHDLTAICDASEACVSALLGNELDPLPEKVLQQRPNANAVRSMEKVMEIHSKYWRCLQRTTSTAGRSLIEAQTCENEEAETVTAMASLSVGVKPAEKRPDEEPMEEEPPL
Measurement name: IC50 (µM)
Numbers only; they are read as µM.

QUERY: Tell me measured IC50 for COc1ccc(-c2ccc3cc(OCCCCCC(=O)NO)ccc3n2)cc1 please.
RESULT: 0.099

###

molecular target: DNA topoisomerase 1 (Homo sapiens) (UniProt P11387); assay: Inhibition of human Topo I-mediated relaxation of supercoiled DNA preincubated for 30 mins followed by proteinase K addition measured after 30 mins by gel electrophoresis; details: time 60.0 min
Sequence (P11387 whole entry): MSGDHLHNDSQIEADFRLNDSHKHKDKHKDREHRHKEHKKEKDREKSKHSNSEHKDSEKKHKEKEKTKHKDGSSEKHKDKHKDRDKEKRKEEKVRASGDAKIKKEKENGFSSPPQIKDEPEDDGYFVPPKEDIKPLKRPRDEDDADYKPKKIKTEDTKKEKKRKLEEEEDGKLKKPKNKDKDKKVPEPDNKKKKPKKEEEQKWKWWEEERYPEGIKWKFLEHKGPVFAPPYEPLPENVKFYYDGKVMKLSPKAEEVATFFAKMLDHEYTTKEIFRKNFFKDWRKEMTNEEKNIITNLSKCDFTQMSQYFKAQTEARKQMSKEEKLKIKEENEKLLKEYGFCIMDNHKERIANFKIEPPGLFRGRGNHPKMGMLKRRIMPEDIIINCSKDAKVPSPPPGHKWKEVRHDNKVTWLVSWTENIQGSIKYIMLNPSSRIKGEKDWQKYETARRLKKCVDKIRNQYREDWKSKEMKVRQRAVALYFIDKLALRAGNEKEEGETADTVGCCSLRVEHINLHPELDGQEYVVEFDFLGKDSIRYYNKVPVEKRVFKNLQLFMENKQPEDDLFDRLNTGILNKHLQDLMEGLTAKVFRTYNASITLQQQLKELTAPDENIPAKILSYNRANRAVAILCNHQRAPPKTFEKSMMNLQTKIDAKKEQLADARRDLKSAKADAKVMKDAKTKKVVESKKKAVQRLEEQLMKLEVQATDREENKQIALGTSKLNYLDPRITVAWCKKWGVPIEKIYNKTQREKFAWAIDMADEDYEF
Activity calls are given as the source filed them. No cut-off for these calls is given here.
Measurement name: inhibition

>  <Cpd smiles>
COc1ccc(-c2ccc3cc(OCCCCCCC(=O)NO)ccc3n2)cc1

>  <Result>
Active

$$$$
>  <Cpd smiles>
COc1ccc(-c2ccc3ccc(OCCCCCCC(=O)NO)cc3n2)cc1I

>  <Result>
Active

$$$$
>  <Cpd smiles>
COc1ccc(-c2ccc3cc(OCCCCCC(=O)NO)ccc3n2)cc1

>  <Result>
Active

$$$$
>  <Cpd smiles>
COc1ccc(-c2ccc3ccc(OCCCCCC(=O)NO)cc3n2)cc1I

>  <Result>
Active

$$$$

###

test system: MDA-MB-231; assay: cells; assay type: functional, cell-based; conditions: Homo sapiens, MDA-MB-231, 48 h
Can you tell me IC50 for the items I'm about to list?
Report the figure along with its unit, number first.

QUERY: Tell me measured IC50 for COc1cc(-c2ccc3cc(OCCCCCCC(=O)NO)ccc3n2)cc(OC)c1OC please.
RESULT: 5.87 µM

QUERY: Tell me measured IC50 for COc1ccc(-c2ccc3cc(OCCCCCCC(=O)NO)ccc3n2)cc1 please.
RESULT: 0.978 µM

QUERY: Tell me measured IC50 for COc1cc(-c2ccc3cc(OCCCCCC(=O)NO)ccc3n2)cc(OC)c1OC please.
RESULT: 6.24 µM

QUERY: Tell me measured IC50 for CC[C@@]1(O)C(=O)OCc2c1cc1n(c2=O)Cc2cc3ccccc3nc2-1 [CAMPTOTHECIN] please.
RESULT: 7.36 µM

QUERY: Tell me measured IC50 for O=C(CCCCCCOc1ccc(-c2ccc3ccccc3n2)cc1)NO please.
RESULT: 3.81 µM

QUERY: Tell me measured IC50 for COc1ccc(-c2ccc3ccc(OCCCCCC(=O)NO)cc3n2)cc1I please.
RESULT: 1.49 µM

QUERY: Tell me measured IC50 for O=C(CCCCCCOc1ccc2nc(-c3ccccc3)ccc2c1)NO please.
RESULT: 8.93 µM

QUERY: Tell me measured IC50 for COc1ccc(-c2ccc3cc(OCCCCCC(=O)NO)ccc3n2)cc1 please.
RESULT: 0.879 µM

QUERY: Tell me measured IC50 for COc1ccc(-c2ccc3ccc(OCCCCCCC(=O)NO)cc3n2)cc1I please.
RESULT: 1.55 µM
